Field: total protein half-life in vivo. Provide a value for each of the sequences that follow.
Experiment: total protein half-life in vivo (active degradation + dilution); higher = more stable protein
Details: wild type E. coli NCM3722; growth: P-lim chemostat; doubling time 12 h
One number for each entry, in h.

MATLKDIAIEAGVSLATVSRVLNDDPTLNVKEETKHRILEIAEKLEYKTSSARKLQTGAVNQHHILAIYSYQQELEINDPYYLAIRHGIETQCEKLGIELTNCYEHSGLPDIKNVTGILIVGKPTPALRAAASALTDNICFIDFHEPGSGYDAVDIDLARISKEIIDFYINQGVNRIGFIGGEDEPGKADIREVAFAEYGRLKQVVREEDIWRGGFSSSSGYELAKQMLAREDYPKALFVASDSIAIGVLRAIHERGLNIPQDISLISVNDIPTARFTFPPLSTVRIHSEMMGSQGVNLVYEKARDGRALPLLVFVPSKLKLRGTTR | 13.4

Batch lookup, total protein half-life in vivo per entry.
1. MRTLQGWLLPVFMLPMAVYAQEATVKEVHDAPAVRGSIIANMLQEHDNPFTLYPYDTNYLIYTQTSDLNKEAIASYDWAENARKDEVKFQLSLAFPLWRGILGPNSVLGASYTQKSWWQLSNSEESSPFRETNYEPQLFLGFATDYRFAGWTLRDVEMGYNHDSNGRSDPTSRSWNRLYTRLMAENGNWLVEVKPWYVVGNTDDNPDITKYMGYYQLKIGYHLGDAVLSAKGQYNWNTGYGGAELGLSYPITKHVRLYTQVYSGYGESLIDYNFNQTRVGVGVMLNDLF [P0A921]
2. MQLNKVLKGLMIALPVMAIAACSSNKNASNDGSEGMLGAGTGMDANGGNGNMSSEEQARLQMQQLQQNNIVYFDLDKYDIRSDFAQMLDAHANFLRSNPSYKVTVEGHADERGTPEYNISLGERRANAVKMYLQGKGVSADQISIVSYGKEKPAVLGHDEAAYSKNRRAVLVY [P0A912]

1. 14.2
2. 11.3

---

Please provide measured total protein half-life in vivo for the entries that follow.
Experiment: total protein half-life in vivo (active degradation + dilution); higher = more stable protein
Details: wild type E. coli NCM3722; growth: C-lim chemostat; doubling time 3 h
Answers are plain numbers, in h.

Some solved cases for reference:
MKVAKDLVVSLAYQVRTEDGVLVDESPVSAPLDYLHGHGSLISGLETALEGHEVGDKFDVAVGANDAYGQYDENLVQRVPKDVFMGVDELQVGMRFLAETDQGPVPVEITAVEDDHVVVDGNHMLAGQNLKFNVEVVAIREATEEELAHGHVHGAHDHHHDHDHDGCCGGHGHDHGHEHGGEGCCGGKGNGGCGCH [P0A9K9] | 2.88
MRLTSKGRYAVTAMLDVALNSEAGPVPLADISERQGISLSYLEQLFSRLRKNGLVSSVRGPGGGYLLGKDASSIAVGEVISAVDESVDATRCQGKGGCQGGDKCLTHALWRDLSDRLTGFLNNITLGELVNNQEVLDVSGRQHTHDAPRTRTQDAIDVKLRA [P0AGK8] | 1.22
MNVFSQTQRYKALFWLSLFHLLVITSSNYLVQLPVSILGFHTTWGAFSFPFIFLATDLTVRIFGAPLARRIIFAVMIPALLISYVISSLFYMGSWQGFGALAHFNLFVARIATASFMAYALGQILDVHVFNRLRQSRRWWLAPTASTLFGNVSDTLAFFFIAFWRSPDAFMAEHWMEIALVDYCFKVLISIVFFLPMYGVLLNMLLKRLADKSEINALQAS | 2.3

Proceed to the following item.
Name the recorded total protein half-life in vivo for MGKLTLLLLAILVWLQYSLWFGKNGIHDYTRVNDDVAAQQATNAKLKARNDQLFAEIDDLNGGQEALEERARNELSMTRPGETFYRLVPDASKRAQSAGQNNR [P0A6S5] .
2.7

---

Assay: total protein half-life in vivo (active degradation + dilution); higher = more stable protein
Conditions: wild type E. coli NCM3722; growth: C-lim chemostat; doubling time 12 h
So basically: total protein half-life in vivo at 10 h or higher? That is criterion met. Lower than 10 h? That is criterion not met.

Example cases with answers are listed next.
MLKFIQNNREITALLAVVLLFVLPGFLDRQYLSVQTLTMVYSSAQILILLAMGATLVMLTRNIDVSVGSITGMCAVLLGMLLNAGYSLPVACVATLLLGLLAGFFNGVLVAWLKIPAIVATLGTLGLYRGIMLLWTGGKWIEGLPAELKQLSAPLLLGVSAIGWLTIILVAFMAWLLAKTAFGRSFYATGDNLQGARQLGVRTEAIRIVAFSLNGCMAALAGIVFASQIGFIPNQTGTGLEMKAIAACVLGGISLLGGSGAIIGAVLGAWFLTQIDSVLVLLRIPAWWNDFIAGLVLLAVLVFDGRLRCALERNLRRQKYARFMTPPPSVKPASSGKKREAA | criterion not met
MSHLAELVASAKAAISQASDVAALDNVRVEYLGKKGHLTLQMTTLRELPPEERPAAGAVINEAKEQVQQALNARKAELESAALNARLAAETIDVSLPGRRIENGGLHPVTRTIDRIESFFGELGFTVATGPEIEDDYHNFDALNIPGHHPARADHDTFWFDTTRLLRTQTSGVQIRTMKAQQPPIRIIAPGRVYRNDYDQTHTPMFHQMEGLIVDTNISFTNLKGTLHDFLRNFFEEDLQIRFRPSYFPFTEPSAEVDVMGKNGKWLEVLGCGMVHPNVLRNVGIDPEVYSGFAFGMGMERLTMLRYGVTDLRSFFENDLRFLKQFK | criterion met
MVELKEPLATLWRGKDAFAEVKKLNGEVFRELETRRTLRFELSGKSYFLKWHKGTTLKEIIKNLLSLRMPVLGADREWHAIHRLSDVGVDTMKGIGFGEKGLNPLTRASFIITEDLTPTISLEDYCADWAVNPPDIRVKRMLIARVATMVRKMHTAGINHRDCYICHFLLHLPFTGREDELKISVIDLHRAQIRAKVPRRWRDKDLIGLYFSSMNIGLTQRDIWRFMKVYFGMPLRKILSLEQNLLNMASVKAERIKERTQRKGL | criterion met

Does MPLPDFRLIRLLPLAALVLTACSVTTPKGPGKSPDSPQWRQHQQDVRNLNQYQTRGAFAYISDQQKVYARFFWQQTGQDRYRLLLTNPLGSTELELNAQPGNVQLVDNKGQRYTADDAEEMIGKLTGMPIPLNSLRQWILGLPGDATDYKLDDQYRLSEITYSQNGKNWKVVYGGYDTKTQPAMPANMELTDGGQRIKLKMDNWIVK have a reported total protein half-life in vivo of at least 10 h?
criterion met

Similarly, MSKPIVMERGVKYRDADKMALIPVKNVATEREALLRKPEWMKIKLPADSTRIQGIKAAMRKNGLHSVCEEASCPNLAECFNHGTATFMILGAICTRRCPFCDVAHGRPVAPDANEPVKLAQTIADMALRYVVITSVDRDDLRDGGAQHFADCITAIREKSPQIKIETLVPDFRGRMDRALDILTATPPDVFNHNLENVPRIYRQVRPGADYNWSLKLLERFKEAHPEIPTKSGLMVGLGETNEEIIEVMRDLRRHGVTMLTLGQYLQPSRHHLPVQRYVSPDEFDEMKAEALAMGFTHAACGPFVRSSYHADLQAKGMEVK ?
criterion not met

Proceed to MSLTLTLTGTGGAQGVPAWGCECAACARARRSPQYRRQPCSGVVKFNDAITLIDAGLHDLADRWSPGSFQQFLLTHYHMDHVQGLFPLRWGVGDPIPVYGPPDEQGCDDLFKHPGLLDFSHTVEPFVVFDLQGLQVTPLPLNHSKLTFGYLLETAHSRVAWLSDTAGLPEKTLKFLRNNQPQVMVMDCSHPPRADAPRNHCDLNTVLALNQVIRSPRVILTHISHQFDAWLMENALPSGFEVGFDGMEIGVA
criterion not met

Next up: MSETAKKVIVGMSGGVDSSVSAWLLQQQGYQVEGLFMKNWEEDDGEEYCTAAADLADAQAVCDKLGIELHTVNFAAEYWDNVFELFLAEYKAGRTPNPDILCNKEIKFKAFLEFAAEDLGADYIATGHYVRRADVDGKSRLLRGLDSNKDQSYFLYTLSHEQIAQSLFPVGELEKPQVRKIAEDLGLVTAKKKDSTGICFIGERKFREFLGRYLPAQPGKIITVDGDEIGEHQGLMYHTLGQRKGLGIGGTKEGTEEPWYVVDKDVENNILVVAQGHEHPRLMSVGLIAQQLHWVDREPFTGTMRCTVKTRYRQTDIPCTVKALDDDRIEVIFDEPVAAVTPGQSAVFYNGEVCLGGGIIEQRLPLPV
criterion met

---

Test: total protein half-life in vivo (active degradation + dilution); higher = more stable protein
Settings: wild type E. coli NCM3722; growth: C-lim chemostat; doubling time 3 h
Kindly supply the reported total protein half-life in vivo values for the records listed here.
Answer with the value and then the unit.

MKYDLIIIGSGSVGAAAGYYATRAGLNVLMTDAHMPPHQHGSHHGDTRLIRHAYGEGEKYVPLVLRAQTLWDELSRHNEEDPIFVRSGVINLGPADSTFLANVAHSAEQWQLNVEKLDAQGIMARWPEIRVPDNYIGLFETDSGFLRSELAIKTWIQLAKEAGCAQLFNCPVTAIRHDDDGVTIETADGEYQAKKAIVCAGTWVKDLLPELPVQPVRKVFAWYQADGRYSVKNKFPAFTGELPNGDQYYGFPAENDALKIGKHNGGQVIHSADERVPFAEVASDGSEAFPFLRNVLPGIGCCLYGAACTYDNSPDEDFIIDTLPGHDNTLLITGLSGHGFKFASVLGEIAADFAQDKKSDFDLTPFRLSRFQ | 2.99 h

With those in mind, consider the next sequence.
Given the entry MNIVITGGTGLIGRHLIPRLLELGHQITVVTRNPQKASSVLGPRVTLWQGLADQSNLNGVDAVINLAGEPIADKRWTHEQKERLCQSRWNITQKLVDLINASDTPPSVLISGSATGYYGDLGEVVVTEEEPPHNEFTHKLCARWEEIACRAQSDKTRVCLLRTGVVLAPDGGILGKMLPPFRLGLGGPIGSGRQYLAWIHIDDMVNGILWLLDNELRGPFNMVSPYPVRNEQFAHALGHALHRPAILRVPATAIRLLMGESSVLVLGGQRALPKRLEEAGFAFRWYDLEEALADVVR , report its measured total protein half-life in vivo.
3.25 h
